- system-tested: IL-17A(FLAG-Tagged): IL-17RA(His-Tagged) (Homo sapiens, UniProt Q16552, K93Q)
- Sequence (Q16552 with tags, fused parts or gaps K93Q): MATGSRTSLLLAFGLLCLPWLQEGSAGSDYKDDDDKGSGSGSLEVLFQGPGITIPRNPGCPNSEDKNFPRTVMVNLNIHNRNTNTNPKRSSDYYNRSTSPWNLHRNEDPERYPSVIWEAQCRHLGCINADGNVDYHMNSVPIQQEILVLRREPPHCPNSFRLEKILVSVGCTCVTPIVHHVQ
- experiment-summary: IL-17A(FLAG-Tagged): IL-17RA(His-Tagged) Binding Disruption Eu-HTRF Assay
- measurement-setup: IL-17A/IL-17RA binding disruption, simple average if tested more than once
Each record here notes measured IC50.
Numbers only here, please. The scale is nM.

{"compound": "O=C(CCC(F)(F)F)N[C@@H](c1cnn2cc([C@@H](NC(=O)c3ccnc(OC(F)F)c3)C3CCC(F)(F)CC3)nc2c1)C1CC1", "readout-units": "nM", "IC50": 110}
{"compound": "CC(C)n1ncnc1C(=O)N[C@H](c1cn2ncc(C(NC(=O)CC3CC(F)(F)C3)C3CCOCC3)cc2n1)C1CCC(F)(F)CC1 (stereo in doubt)", "readout-units": "nM", "IC50": 150}
{"compound": "N#CC1([C@@H](NC(=O)C[C@H]2CC2(F)F)c2cnn3cc([C@@H](NC(=O)c4nonc4C4CC4)C4CCC(F)(F)CC4)nc3c2)CCC1 (single isomer, unassigned) [Example 448]", "readout-units": "nM", "IC50": 35}
{"compound": "CC(C)n1nccc1C(=O)N[C@@H](COC(C)(C)C)c1cn2ncc(C(NC(=O)CCC(F)(F)F)C3CC3)cc2n1 (single isomer, unassigned) [Example 316]", "readout-units": "nM", "IC50": 240}
{"compound": "CC(C)n1nccc1C(=O)N[C@H](c1cn2ncc([C@H](NC(=O)COCC(F)(F)F)C3CC3)cc2n1)C1CCC(F)(F)CC1", "readout-units": "nM", "IC50": 250}
{"compound": "O=C(CCC(F)(F)F)N[C@@H](c1cnn2cc([C@@H](NC(=O)c3cccc(F)c3)C3CCC(F)(F)CC3)nc2c1)C1CC1", "readout-units": "nM", "IC50": 60}

Form field - read-out: IC50; system: IL-17A(FLAG-Tagged): IL-17RA(His-Tagged) (Homo sapiens, UniProt Q16552, K93Q); submitted item: `O=C(CCC(F)(F)F)N[C@@H](c1cnn2cc([C@@H](NC(=O)c3ccccc3CC(F)(F)F)C3CCC(F)(F)CC3)nc2c1)C1CC1`
320

---

pIC50: recorded values
- system-tested: IL-17A(FLAG-Tagged): IL-17RA(His-Tagged) (Homo sapiens, UniProt Q16552, K93Q)
- experiment-summary: IL-17A(FLAG-Tagged): IL-17RA(His-Tagged) Binding Disruption Eu-HTRF Assay
- measurement-setup: IL-17A/IL-17RA binding disruption, simple average if tested more than once
Please note pIC50 is a logarithmic value: minus log10 of concentration in mol/L. Answer with that number alone.

Examples from the recorded data:
{"chemical-string": "O=C(CCC(F)(F)F)N[C@@H](c1cnn2cc([C@@H](NC(=O)c3ncnn3CCOC(F)(F)F)C3CCC(F)(F)CC3)nc2c1)C1CC1", "system-tested": "IL-17A(FLAG-Tagged): IL-17RA(His-Tagged) (Homo sapiens, UniProt Q16552, K93Q)", "pIC50": 7.31}
{"chemical-string": "Cc1nc(C)c(C(=O)N[C@H](c2cn3ncc([C@H](NC(=O)CCC(F)(F)F)C4CC4)cc3n2)C2CCC(F)(F)CC2)o1", "system-tested": "IL-17A(FLAG-Tagged): IL-17RA(His-Tagged) (Homo sapiens, UniProt Q16552, K93Q)", "pIC50": 4.35}
{"chemical-string": "Cc1nonc1C(=O)N[C@H](c1cn2ncc([C@H](NC(=O)C34CC(F)(C3)C4)C3CC3)cc2n1)C1CCC(F)(F)CC1", "system-tested": "IL-17A(FLAG-Tagged): IL-17RA(His-Tagged) (Homo sapiens, UniProt Q16552, K93Q)", "pIC50": 5.70}

Here is another compound to look at.
Given the entry `Cc1nonc1C(=O)N[C@H](c1cn2ncc([C@H](NC(=O)CCC(F)F)C3CC3)cc2n1)C1CCC(F)(F)CC1` , report its measured pIC50.
7.01

Data origin: patent US11702422B2
